All values here come from ChEMBL document CHEMBL1150780.

In this section we review reported IC50 values for a set of compounds.
- Test system: A549
- Experiment Notes: Cytotoxicity against human A549 cells after 24 hrs visualized by Lofflers methylene blue by colony forming assay in presence of beta-D-glucuronidase
- Assay type: functional, cell-based
Recorded Metric: IC50 (nM)

>>> data_value("C[C@@H](Cl)[C@@H]1CN(C(=O)c2cc3cc(OCCN(C)C)ccc3[nH]2)c2cc(O[C@@H]3O[C@H](C(=O)O)[C@@H](O)[C@H](O)[C@H]3O)c3ccccc3c21")
0.9
>>> data_value("COC(=O)[C@H]1O[C@@H](Oc2cc3c(c4ccccc24)[C@H]([C@@H](C)Cl)CN3C(=O)c2cc3cc(OCCN(C)C)ccc3[nH]2)[C@H](O)[C@@H](O)[C@@H]1O")
2.1
